target or system: T1, pm5 (Y15 and Y17 sulfated; Y16 not sulfated)
T1 construct: also called sulfated CCR8 N-terminal peptide pm5
T1 sequence (peptide, as listed by the source): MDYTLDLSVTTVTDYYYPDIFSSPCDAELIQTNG
test summary: ELISA on coated peptide [cont.]

| binder | binding result |
| --- | --- |
| anti-CCR8 mAb 1-22 (antibody, human IgG1, kappa, V domains shown, Humanized mAb, human IgG1 / kappa) VH: EVQLLESGGGLVQPGGSLRLSCAASGFTFNAYAMNWVRQAPGKGLEWVARIRSKSNDYATYYGDSVKGRFTISRDNSKNTLYLQMNSLRAEDTAVYYCVRGREAYYRYDGGYYAMDVWGQGTTVTVSS VL: DIVMTQSPLSLPVTPGEPASISCRSSKSLLHSNGNTYLYWFLQKPGQSPQLLIYRVSNLASGVPDRFSGSGSGTDFTLKISRVEAEDVGVYYCMQHREYPFTFGQGTKLEIKR | binds |
| anti-CCR8 mAb 1-5 (antibody, V domains shown, Murine hybridoma mAb) VH: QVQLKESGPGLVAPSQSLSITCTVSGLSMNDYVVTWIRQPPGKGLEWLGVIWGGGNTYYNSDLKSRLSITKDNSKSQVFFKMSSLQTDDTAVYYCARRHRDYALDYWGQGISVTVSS VL: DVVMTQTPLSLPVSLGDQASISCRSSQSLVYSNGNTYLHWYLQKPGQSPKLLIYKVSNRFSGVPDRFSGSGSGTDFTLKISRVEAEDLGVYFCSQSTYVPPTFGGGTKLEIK | binds |
| anti-CCR8 mAb 1-3 (antibody, V domains shown, Murine hybridoma mAb) VH: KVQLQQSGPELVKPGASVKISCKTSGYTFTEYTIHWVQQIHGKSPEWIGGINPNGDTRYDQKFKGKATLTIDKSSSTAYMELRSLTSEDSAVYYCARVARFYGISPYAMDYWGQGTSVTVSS VL: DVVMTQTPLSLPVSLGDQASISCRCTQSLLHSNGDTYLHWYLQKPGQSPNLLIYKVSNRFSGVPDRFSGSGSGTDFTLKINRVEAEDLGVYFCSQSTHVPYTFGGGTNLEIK | binds |

Numbers sourced from patent US20260132208A1.
